# Test system: MDA-MB-231 (breast cancer)
# assayProtocol: Cytotoxicity test by MTT assay, MDA-MB-231
# Type: cell-based, human
# setupConditions: Homo sapiens, MBA-MB-231, 48 h
pIC50: −log10 of the molar value.

[
  {
    "molecule": "Cc1nc2c(c(C)c1O)/C(=C/c1[nH]c(C)c(C(=O)N3CCCC3)c1C)C(=O)N2 [Compound I-44]",
    "pIC50": 4.36
  },
  {
    "molecule": "CCN(CC)CCNC(=O)c1c(C)[nH]c(/C=C2\\C(=O)Nc3nc(C)c(O)c(C)c32)c1C [Compound I-39]",
    "pIC50": 5.27
  },
  {
    "molecule": "Cc1nc2c(c(C)c1O)/C(=C/c1[nH]c(C)c(C(=O)N3CCOCC3)c1C)C(=O)N2 [Compound I-46]",
    "pIC50": 4.84
  },
  {
    "molecule": "CCCCC/C=C1\\C(=O)Nc2nc(C)c(O)c(C)c21 [Compound I-01]",
    "pIC50": 4.90
  },
  {
    "molecule": "CCOC(=O)c1c(C)[nH]c(/C=C2\\C(=O)Nc3nc(C)c(O)c(C)c32)c1C [Compound I-38]",
    "pIC50": 4.61
  },
  {
    "molecule": "Cc1cc(C)c(/C=C2\\C(=O)Nc3nc(C)c(O)c(C)c32)[nH]1 [Compound I-36]",
    "pIC50": 4.99
  },
  {
    "molecule": "Cc1nc2c(c(C)c1O)/C(=C/c1ccc(N(C)C)cc1)C(=O)N2 [Compound I-18]",
    "pIC50": 4.92
  },
  {
    "molecule": "Cc1nc2c(c(C)c1O)/C(=C/C(c1ccccc1)c1ccccc1)C(=O)N2 [Compound I-19]",
    "pIC50": 4.64
  }
]

* * *

Form field: IC50 (one value per entry).
# Tested on: A549 (lung cancer)
# assayProtocol: Cytotoxicity test by MTT assay, A549
# Type: cell-based, human
# setupConditions: Homo sapiens, A549, 48 h

[
  {
    "compound": "COc1ccc(Br)cc1/C=C1\\C(=O)Nc2nc(C)c(O)c(C)c21",
    "IC50 [µM]": 10.1
  },
  {
    "compound": "Cc1nc2c(c(C)c1O)/C(=C/c1[nH]c(C)c(C(=O)N3CCCCC3)c1C)C(=O)N2",
    "IC50 [µM]": 12.1
  },
  {
    "compound": "CCOC(=O)c1c(C)[nH]c(/C=C2\\C(=O)Nc3nc(C)c(O)c(C)c32)c1C",
    "IC50 [µM]": 18.2
  },
  {
    "compound": "Cc1nc2c(c(C)c1O)/C(=C/c1ccncc1)C(=O)N2",
    "IC50 [µM]": 30.1
  },
  {
    "compound": "CCNCCNC(=O)c1c(C)[nH]c(/C=C2\\C(=O)Nc3nc(C)c(O)c(C)c32)c1C",
    "IC50 [µM]": 1.47
  },
  {
    "compound": "Cc1nc2c(c(C)c1O)/C(=C/c1[nH]c(C)c(C(=O)N3CCCC3)c1C)C(=O)N2",
    "IC50 [µM]": 50.1
  },
  {
    "compound": "Cc1nc2c(c(C)c1O)/C(=C/c1[nH]c(C)c(C(=O)N3CCOCC3)c1C)C(=O)N2",
    "IC50 [µM]": 30.1
  },
  {
    "compound": "COc1ccc(OC)c(/C=C2\\C(=O)Nc3nc(C)c(O)c(C)c32)c1",
    "IC50 [µM]": 47.5
  },
  {
    "compound": "Cc1nc2c(c(C)c1O)/C(=C/C(c1ccccc1)c1ccccc1)C(=O)N2",
    "IC50 [µM]": 31.5
  },
  {
    "compound": "Cc1cc(C)c(/C=C2\\C(=O)Nc3nc(C)c(O)c(C)c32)[nH]1",
    "IC50 [µM]": 13.9
  },
  {
    "compound": "Cc1nc2c(c(C)c1O)/C(=C/c1cccnc1)C(=O)N2",
    "IC50 [µM]": 13.8
  },
  {
    "compound": "Cc1nc2c(c(C)c1O)/C(=C/c1[nH]c(C)c(C(=O)NCCN3CCCCC3)c1C)C(=O)N2",
    "IC50 [µM]": 13.2
  },
  {
    "compound": "Cc1nc2c(c(C)c1O)/C(=C/c1ccc3ccccc3n1)C(=O)N2",
    "IC50 [µM]": 4.2
  },
  {
    "compound": "Cc1nc2c(c(C)c1O)/C(=C/c1[nH]c(C)c(C(=O)NC3CCCCC3)c1C)C(=O)N2",
    "IC50 [µM]": 6.08
  },
  {
    "compound": "Cc1nc2c(c(C)c1O)/C(=C/c1ccc(N(C)C)cc1)C(=O)N2",
    "IC50 [µM]": 13.2
  },
  {
    "compound": "Cc1nc2c(c(C)c1O)/C(=C/c1[nH]c(C)c(C(=O)N3CCN(C)CC3)c1C)C(=O)N2",
    "IC50 [µM]": 26.3
  },
  {
    "compound": "CCN(CC)CCNC(=O)c1c(C)[nH]c(/C=C2\\C(=O)Nc3nc(C)c(O)c(C)c32)c1C",
    "IC50 [µM]": 19.9
  },
  {
    "compound": "Cc1nc2c(c(C)c1O)/C(=C/c1[nH]c(C)c(C(=O)O)c1C)C(=O)N2",
    "IC50 [µM]": 19.9
  },
  {
    "compound": "CCN(CC)CCNC(=O)c1c(C)[nH]c(/C=C2\\C(=O)Nc3ccc(F)cc32)c1C [Sunitinib, sunitinib, reference compound]",
    "IC50 [µM]": 6.98
  },
  {
    "compound": "CCCCC/C=C1\\C(=O)Nc2nc(C)c(O)c(C)c21",
    "IC50 [µM]": 7.6
  }
]

* * *

# assayProtocol: Cytotoxicity test by MTT assay, HEK293 normal cell line
# Assay type: cell-based
# setupConditions: human, HEK293 cells (normal cell line)
# Procedure: A cytotoxicity test was measured by MTT assay. Each cell line was cultured in a 96-well plate at a density of 1×10^4 cells/well. After 24 hours, the culture medium containing 1% FBS (fetal bovine serum) was treated and reacted with compounds or solutions of compounds for 48 hours. […] After reacting in an incubator for 30 minutes, the formation of formazan was quantified using a microplate reader at an absorbance of 540 nm.

[
  {
    "compoundStructure": "Cc1nc2c(c(C)c1O)/C(=C/c1cccnc1)C(=O)N2",
    "measurementUnits": "µM",
    "qualifier": ">",
    "IC50 at 48 h": 90
  },
  {
    "compoundStructure": "Cc1nc2c(c(C)c1O)/C(=C/c1ccc(N(C)C)cc1)C(=O)N2",
    "measurementUnits": "µM",
    "qualifier": ">",
    "IC50 at 48 h": 90
  },
  {
    "compoundStructure": "Cc1nc2c(c(C)c1O)/C(=C/c1[nH]c(C)c(C(=O)NC3CCCCC3)c1C)C(=O)N2",
    "measurementUnits": "µM",
    "qualifier": "=",
    "IC50 at 48 h": 37.1
  },
  {
    "compoundStructure": "Cc1nc2c(c(C)c1O)/C(=C/c1ccc3ccccc3n1)C(=O)N2",
    "measurementUnits": "µM",
    "qualifier": "=",
    "IC50 at 48 h": 46.8
  },
  {
    "compoundStructure": "CCOC(=O)c1c(C)[nH]c(/C=C2\\C(=O)Nc3nc(C)c(O)c(C)c32)c1C",
    "measurementUnits": "µM",
    "qualifier": ">",
    "IC50 at 48 h": 90
  },
  {
    "compoundStructure": "Cc1nc2c(c(C)c1O)/C(=C/c1[nH]c(C)c(C(=O)N3CCCCC3)c1C)C(=O)N2",
    "measurementUnits": "µM",
    "qualifier": ">",
    "IC50 at 48 h": 90
  },
  {
    "compoundStructure": "Cc1nc2c(c(C)c1O)/C(=C/C(c1ccccc1)c1ccccc1)C(=O)N2",
    "measurementUnits": "µM",
    "qualifier": "=",
    "IC50 at 48 h": 26.2
  },
  {
    "compoundStructure": "CCCCC/C=C1\\C(=O)Nc2nc(C)c(O)c(C)c21",
    "measurementUnits": "µM",
    "qualifier": ">",
    "IC50 at 48 h": 90
  },
  {
    "compoundStructure": "COc1ccc(Br)cc1/C=C1\\C(=O)Nc2nc(C)c(O)c(C)c21",
    "measurementUnits": "µM",
    "qualifier": "=",
    "IC50 at 48 h": 33
  },
  {
    "compoundStructure": "Cc1nc2c(c(C)c1O)/C(=C/c1[nH]c(C)c(C(=O)N3CCN(C)CC3)c1C)C(=O)N2",
    "measurementUnits": "µM",
    "qualifier": "=",
    "IC50 at 48 h": 38
  },
  {
    "compoundStructure": "CCN(CC)CCNC(=O)c1c(C)[nH]c(/C=C2\\C(=O)Nc3nc(C)c(O)c(C)c32)c1C",
    "measurementUnits": "µM",
    "qualifier": "=",
    "IC50 at 48 h": 40.7
  },
  {
    "compoundStructure": "Cc1nc2c(c(C)c1O)/C(=C/c1[nH]c(C)c(C(=O)NCCN3CCCCC3)c1C)C(=O)N2",
    "measurementUnits": "µM",
    "qualifier": "=",
    "IC50 at 48 h": 21.4
  },
  {
    "compoundStructure": "Cc1nc2c(c(C)c1O)/C(=C/c1[nH]c(C)c(C(=O)N3CCOCC3)c1C)C(=O)N2",
    "measurementUnits": "µM",
    "qualifier": ">",
    "IC50 at 48 h": 90
  },
  {
    "compoundStructure": "Cc1cc(C)c(/C=C2\\C(=O)Nc3nc(C)c(O)c(C)c32)[nH]1",
    "measurementUnits": "µM",
    "qualifier": ">",
    "IC50 at 48 h": 90
  },
  {
    "compoundStructure": "Cc1nc2c(c(C)c1O)/C(=C/c1[nH]c(C)c(C(=O)N3CCCC3)c1C)C(=O)N2",
    "measurementUnits": "µM",
    "qualifier": ">",
    "IC50 at 48 h": 90
  }
]
